System: 786-O
assay.method.text: Euclidean distance of Cell Painting phenotypic profile (signed KS, 77 features) to DMSO centroid (dimensionless distance); 5 or 10 uM (library dependent); higher = stronger phenotypic change vs DMSO (phenoactivity)
conditions: 48 h
Where a name gives a salt, the structure may show the parent alone.
Threshold check on Euclidean distance: at or above 1 gives Fulfilled, strictly below gives Not fulfilled.

- molecule: "CC(C)(C)NC(=O)N[C@H](C(=O)N1C[C@H]2[C@@H]([C@H]1C(=O)NC(CC1CCC1)C(=O)C(N)=O)C2(C)C)C(C)(C)C (stereo partly specified)"
  tested.target: "786-O"
  class.label: "Fulfilled"
- molecule: "NC(=O)NC1NC(=O)NC1=O (stereo unspecified)"
  tested.target: "786-O"
  class.label: "Not fulfilled"
- molecule: "N#CC(=C(/N)Sc1ccccc1N)/C(C#N)=C(\\N)Sc1ccccc1N"
  tested.target: "786-O"
  class.label: "Fulfilled"
- molecule: "CC1(C)S[C@@H]2[C@H](NC(=O)[C@H](N)c3ccccc3)C(=O)N2[C@H]1C(=O)O [Ampicillin sodium]"
  tested.target: "786-O"
  class.label: "Fulfilled"
- molecule: "CC(C)(Oc1ccc(CCNC(=O)c2ccc(Cl)cc2)cc1)C(=O)O [Bezafibrate]"
  tested.target: "786-O"
  class.label: "Not fulfilled"
- molecule: "CN(Cc1ccc(C(C)(C)C)cc1)Cc1cccc2ccccc12 [Butenafine HCl]"
  tested.target: "786-O"
  class.label: "Not fulfilled"
- molecule: "CCCCNc1cc(C(=O)O)cc(S(N)(=O)=O)c1Oc1ccccc1 [Bumetanide]"
  tested.target: "786-O"
  class.label: "Fulfilled"
- molecule: "Nc1nc(/C(=C/CC(=O)O)C(=O)N[C@@H]2C(=O)N3C(C(=O)O)=CCS[C@H]23)cs1 [Ceftibuten dihydrate]"
  tested.target: "786-O"
  class.label: "Fulfilled"
- molecule: "Nc1[nH]cnc2ncnc1-2 [Adenine HCl]"
  tested.target: "786-O"
  class.label: "Fulfilled"
- molecule: "O=C(O)c1cn(C2CC2)c2cc(N3CCNCC3)c(F)cc2c1=O [Ciprofloxacin hydrochloride hydrate]"
  tested.target: "786-O"
  class.label: "Fulfilled"
- molecule: "CCN(CC)CC#CCOC(=O)C(O)(c1ccccc1)C1CCCCC1 (stereo unspecified)"
  tested.target: "786-O"
  class.label: "Not fulfilled"
- molecule: "CS(=O)(=O)CCNCc1ccc(-c2ccc3ncnc(Nc4ccc(OCc5cccc(F)c5)c(Cl)c4)c3c2)o1 [Lapatinib ditosylate monohydrate]"
  tested.target: "786-O"
  class.label: "Fulfilled"
- molecule: "CO[C@H]1O[C@@H]2O[C@@]3(C)CC[C@H]4[C@H](C)CC[C@@H]([C@H]1C)[C@@]24OO3"
  tested.target: "786-O"
  class.label: "Fulfilled"
- molecule: "Cc1c(F)cccc1NC(=O)Nc1ccc(Cl)c(S(=O)(=O)[C@H]2CCCNC2)c1O"
  tested.target: "786-O"
  class.label: "Fulfilled"
- molecule: "OCC1OC(OC2OC(CO)C(O)C(O)C2O)C(O)C(O)C1O [D-(+)-Trehalose Anhydrous]"
  tested.target: "786-O"
  class.label: "Fulfilled"
